Provenance of the data: the supplement of paper PMC7125110

B1: glmS ribozyme (parent)
chain: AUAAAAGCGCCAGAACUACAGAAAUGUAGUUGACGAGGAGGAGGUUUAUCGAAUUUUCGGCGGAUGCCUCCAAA

Variants of: B1
Assay: self-cleavage kobs at 640 uM GlcN6P; higher = faster cleavage; RNA array
Conditions: with glucosamine-6-phosphate
Variants at the floor of the assay were thinned out.
self-cleavage kobs at 640 uM GlcN6P of 0.0001 s⁻¹ or higher: condition met. Under 0.0001 s⁻¹: condition not met.

SEQUENCE CHANGE	CLASS ASSIGNMENT
G7A A15U G51C A64G	condition not met
A12G G51A	condition not met
U30G G32A G35A C67U	condition not met
A15G U65C	condition met
G29A U47A	condition met
G29U A42G U45C	condition not met
A6C G63C	condition not met
G29U G51A A64U U69G	condition met
A36U G40U	condition not met
U31C A39C	condition met
A12U A53C C67U	condition met
U65A G66U	condition not met
U47G U54G	condition met
A42G U55G A64G C71G	condition met
G29C U56G	condition met
C8U U46G C61A C68U	condition not met
A15C U30A C67A	condition met
G13U U31C G41A	condition not met
G7U G29U A48C	condition not met
U47C A48U	condition not met
U55G U65A	condition met
G32U G59U C71G	condition not met
U65A U69G	condition not met
G38U A52C	condition not met
C10G A15C	condition not met
U49C C58U G66A	condition not met
C58A G59C	condition not met
A6C A42C	condition not met
G7C U55A A64U	condition not met
U49G U69G	condition not met
A12C A52U	condition not met
A42G G62A	condition not met
U56G U65A	condition met
A15G U30G C70U	condition met
G7U C8A G13A	condition not met
A36U U54C	condition not met
A39C U55G C67U	condition not met
U55G C67A C68G	condition not met
U30G C34A	condition not met
C10G G43A G62U	condition not met
U49C C61A	condition not met
A12U G29U G59U C68G C70A	condition not met
C8A C11U A36G	condition not met
A12U A15U C68G	condition not met
G41U G43U	condition not met
